% Inhib. RQNB values by entry
- System: muscarinic binding site
- assay: RQNB screening assay: inhibition of radiolabeled quinuclidinyl benzilate (muscarinic antagonist) binding in rat cerebral cortex tissue
- study_conditions: @ 10^-6 M
reported_endpoint: % Inhib. RQNB (%)

CN1CCC=C(C(CCc2ccccc2)=NO)C1 :: 86
CN1CCC=C(C(COCc2ccccc2)=NO)C1 :: 38
CC(=NO)C1=CCCNC1 [Hydrogen 3-Methyl] :: 24
CCCN1CCC=C(C(CCc2ccccc2)=NO)C1 :: 63
CN1CCC=C(C(=NO)c2ccccc2)C1 :: 51

---

- Tested on: muscarinic binding site
- assay: RCMD screening assay: inhibition of radiolabeled cis-methyldioxolane (muscarinic agonist) binding in rat cerebral cortex tissue
- study_conditions: @ 10^-7 M
% Inhib. RCMD values by entry
reported_endpoint: % Inhib. RCMD (%)

CC(=NO)C1=CCCNC1 [Hydrogen 3-Methyl] :: 85
CN1CCC=C(C=NO)C1 [Methyl Hydrogen] :: 22
CC(C)/C(=N\O)C1=CCCN(C)C1 [Methyl 3-(1-Methylethyl) (anti)] :: 10
CN1CCC=C(C(COCc2ccccc2)=NO)C1 :: 30
CN1CCC=C(C(CCc2ccccc2)=NO)C1 :: 66
CCCN1CCC=C(C(CCc2ccccc2)=NO)C1 :: 3
CN1CCC=C(C(=NO)c2ccccc2)C1 :: 39
CCN1CCC=C(C(C)=NO)C1 :: 21
CC(C)/C(=N/O)C1=CCCN(C)C1 [Methyl 3-(1-Methylethyl) (syn)] :: 43

---

- tested_target: muscarinic binding site
- assay: RCMD screening assay: inhibition of radiolabeled cis-methyldioxolane (muscarinic agonist) binding in rat cerebral cortex tissue
- study_conditions: rat cerebral cortex; radiolabeled cis-methyldioxolane
Mark 1 (yes) only for IC50 values smaller than 0.02 µM; exact matches and larger values are 0 (no).

CCC(=NO)C1=CCCN(C)C1 :: 0 (no)
C#CCCC(=NO)C1=CCCN(C)C1 :: 1 (yes)
CC(=NO)C1=CCCN(C)C1 :: 1 (yes)
CC(=NO)C1=CCN(C)CC1 :: 0 (no)
COCCCC(=NO)C1=CCCN(C)C1 :: 0 (no)
C=CCCC(=NO)C1=CCCN(C)C1 :: 0 (no)

---

- Tested on: muscarinic binding site
- assay: RQNB screening assay: inhibition of radiolabeled quinuclidinyl benzilate (muscarinic antagonist) binding in rat cerebral cortex tissue
- study_conditions: @ 10^-6 M
% Inhib. RQNB values by entry
reported_endpoint: % Inhib. RQNB (%)

CC(C)/C(=N/O)C1=CCCN(C)C1 [Methyl 3-(1-Methylethyl) (syn)] :: 35
CN1CCC=C(C=NO)C1 [Methyl Hydrogen] :: 8
CC(C)/C(=N\O)C1=CCCN(C)C1 [Methyl 3-(1-Methylethyl) (anti)] :: 10
CCN1CCC=C(C(C)=NO)C1 :: 23

---

log10 of IC50 values by entry
- tested_target: muscarinic binding site
- assay: RQNB screening assay: inhibition of radiolabeled quinuclidinyl benzilate (muscarinic antagonist) binding in rat cerebral cortex tissue
- study_conditions: rat cerebral cortex; radiolabeled quinuclidinyl benzilate
reported_endpoint: log10 of IC50 (log10 of the value in nM)

CC(=NO)C1=CCCN(C)C1 :: 3.67
C#CCCC(=NO)C1=CCCN(C)C1 :: 3.00
COCCCC(=NO)C1=CCCN(C)C1 :: 3.40
CC(=NO)C1=CCN(C)CC1 :: 4.00
C=CCCC(=NO)C1=CCCN(C)C1 :: 2.78
CCCCC(=NO)C1=CCCN(C)C1 :: 2.48
CCC(=NO)C1=CCCN(C)C1 :: 3.30

---

- Test system: laboratory rats
- assay: Scopolamine induced swimming test (SIS)
- Format: in vivo, rat
- study_conditions: sc; Subcutaneous; rat; read-out: Minimal Effective Dose for Reversal of Scopolamine-Induced Swimming Hyperactivity
minimal effective dose values by entry
reported_endpoint: minimal effective dose (mg/kg)

CCCCC(=NO)C1=CCCN(C)C1 [Methyl 3-n-Butyl] :: 32
COCCCC(=NO)C1=CCCN(C)C1 [Methyl 3-(CH2 CH2 CH2 OCH3)] :: 32
C=CCCC(=NO)C1=CCCN(C)C1 [Methyl 3-(CH2 CH2 CHCH2)] :: 32
CC(=NO)C1=CCCNC1 [Hydrogen 3-Methyl] :: 3.2
CN1CCC=C(C=NO)C1 [Methyl Hydrogen] :: 32
CN1CCC=C(C(CCc2ccccc2)=NO)C1 [Methyl 3-(CH2 CH2Ph)] :: 32
CC(=NO)C1=CCCN(C)C1 [Methyl 3-Methyl] :: 3.2
CC(=NO)C1=CCN(C)CC1 [Methyl 4-Methyl] :: 3.2
CCC(=NO)C1=CCCN(C)C1 [Methyl 3-Ethyl] :: 32
